Every entry's value here was drawn from ChEMBL document CHEMBL4049435.

- test_description: Permeability of the compound by PAMPA
- Format: physicochemical
- stated_conditions: read-out: permeability
Assign Papp to each entry below.

According to the records, this compound NC(CO)(CO)CO.O=C(O)CCn1c(=O)oc2cc(OCC3CCC3)c(Cl)cc21 displays Papp of 1.2 ×10⁻⁶ cm/s

Value of Papp reported for the compound Cc1ccc([C@@H](C)Oc2cc3oc(=O)n(CCC(=O)O)c3cc2Cl)nc1.NC(CO)(CO)CO is 2.2 ×10⁻⁶ cm/s

# Papp of NC(CO)(CO)CO.O=C(O)CCn1c(=O)oc2cc(OCC3CC3)c(Cl)cc21 = 1.9 ×10⁻⁶ cm/s

The compound listed as CCc1cc2oc(=O)n(CCC(=O)O)c2cc1Cl.NC(CO)(CO)CO shows Papp equal to 1 to 2.2 ×10⁻⁶ cm/s

Consider C[C@@H](Oc1cc2oc(=O)n(CCC(=O)O)c2cc1Cl)c1cccnn1 . Its measured Papp is < 0.3 ×10⁻⁶ cm/s

The reported value for C[C@@H](Oc1cc2oc(=O)n(CCC(=O)O)c2cc1Cl)c1ccccn1.NC(CO)(CO)CO in terms of Papp is 0.3 to 2 ×10⁻⁶ cm/s

Lab note: C[C@@H](Oc1cc2oc(=O)n(CCC(=O)O)c2cc1Cl)c1ccc(F)cn1.NC(CO)(CO)CO gave Papp of 3.1 ×10⁻⁶ cm/s

Record CC(C)Cc1cc2oc(=O)n(CCC(=O)O)c2cc1Cl.NC(CO)(CO)CO , field Papp: < 1 ×10⁻⁶ cm/s

get_value(item= Cc1ccnc([C@@H](C)Oc2cc3oc(=O)n(CCC(=O)O)c3cc2Cl)c1.NC(CO)(CO)CO , readout=Papp) returns < 0.3 ×10⁻⁶ cm/s

Papp reported for this compound C[C@@H](Oc1cc2oc(=O)n(CCC(=O)O)c2cc1Cl)c1ncccn1.NC(CO)(CO)CO : < 0.3 ×10⁻⁶ cm/s

NC(CO)(CO)CO.O=C(O)CCn1c(=O)oc2cc(OCc3ccccn3)c(Cl)cc21 yielded Papp of 1.1 ×10⁻⁶ cm/s

Entry COCCOc1cc2oc(=O)n(CCC(=O)O)c2cc1Cl.NC(CO)(CO)CO ; Papp = < 0.3 ×10⁻⁶ cm/s

Per the record, C[C@@H](Oc1cc2oc(=O)n(CCC(=O)O)c2cc1Cl)c1ncco1.NC(CO)(CO)CO has Papp of < 0.3 ×10⁻⁶ cm/s

Papp for CCOc1cc2oc(=O)n(CCC(=O)O)c2cc1Cl.NC(CO)(CO)CO is < 1 ×10⁻⁶ cm/s

What the record says about Cc1cc2oc(=O)n(CCC(=O)O)c2cc1Cl.NC(CO)(CO)CO : Papp is 0.3 to 1 ×10⁻⁶ cm/s

// recorded Papp for O=C(O)CCn1c(=O)oc2cc(Cl)c(Cl)cc21 : 2.4 ×10⁻⁶ cm/s

So for COc1cc2oc(=O)n(CCC(=O)O)c2cc1Cl , the logged Papp turned out to be < 0.3 ×10⁻⁶ cm/s

Record CC(Oc1cc2oc(=O)n(CCC(=O)O)c2cc1Cl)c1ccccn1.NC(CO)(CO)CO (stereo not drawn) , field Papp: < 0.3 ×10⁻⁶ cm/s

Papp measured on C[C@@H](Oc1cc2oc(=O)n(CCC(=O)O)c2cc1Cl)c1ccc(Cl)cn1.NC(CO)(CO)CO = 6 ×10⁻⁶ cm/s

Looking up Cc1cccc([C@@H](C)Oc2cc3oc(=O)n(CCC(=O)O)c3cc2Cl)n1.NC(CO)(CO)CO , I found its Papp recorded as 2.1 ×10⁻⁶ cm/s

The recorded Papp for C[C@H](Oc1cc2oc(=O)n(CCC(=O)O)c2cc1Cl)c1ccccn1.NC(CO)(CO)CO is < 0.3 ×10⁻⁶ cm/s

Documented Papp of NC(CO)(CO)CO.O=C(O)CCn1c(=O)oc2cc(OCCN3CCCC3)c(Cl)cc21 : < 0.3 ×10⁻⁶ cm/s

The value of Papp measured for the compound NC(CO)(CO)CO.O=C(O)CCn1c(=O)oc2cc(OC3CC3)c(Cl)cc21 turned out to be 1.5 ×10⁻⁶ cm/s

* * *

Answer each item with its documented clearance.
- test_description: Clearance in Han-Wistar rat blood at 1 mg/kg, iv by LC-MS/MS analysis
- Assay type: ADME, organism-based
- stated_conditions: whole blood
# output: bare number, implied unit mL/min/kg

Recorded result, O=C(O)CCn1c(=O)oc2cc(OC3CC3)c(Cl)cc21 , clearance: 9.4

Given item Cc1cc2oc(=O)n(CCC(=O)O)c2cc1Cl , the value recorded as its clearance is 4.7

Consider C[C@@H](Oc1cc2onc(CCC(=O)O)c2cc1Cl)c1ccccn1 . Its measured clearance is 0.8

Lab book: clearance of C[C@@H](Oc1cc2oc(=O)n(CCC(=O)O)c2cc1Cl)c1ccccn1 noted as 16.8

What the record says about O=C(O)CCn1c(=O)oc2cc(OCC3CC3)c(Cl)cc21 : clearance is 4.1

Lookup result for CCOc1cc2oc(=O)n(CCC(=O)O)c2cc1Cl ; measured clearance: 16

* * *

What solubility at 24 h was measured for each of the following?
- test_description: Solubility of the compound in saline measured after 24 hrs
- Type: physicochemical

The measured solubility at 24 h associated with Cc1ccc([C@@H](C)Oc2cc3onc(CCC(=O)O)c3cc2Cl)nn1.NC(CO)(CO)CO reads 0.23 mg/mL

Recorded solubility at 24 h (compound NC(CO)(CO)CO.O=C(O)CCn1c(=O)oc2cc(OC3CC3)c(Cl)cc21 ): > 2.4 mg/mL

solubility at 24 h reported for this compound NC(CO)(CO)CO.O=C(O)CCn1c(=O)oc2cc(Cl)c(Cl)cc21 : 0.27 mg/mL

solubility at 24 h reading for Cc1cc2oc(=O)n(CCC(=O)O)c2cc1Cl.NC(CO)(CO)CO : > 127 mg/mL

Lookup result for C[C@@H](Oc1cc2oc(=O)n(CCC(=O)O)c2cc1Cl)c1ccccn1.NC(CO)(CO)CO ; measured solubility at 24 h: > 9.5 mg/mL

* * *

- test_description: Protein binding in Han-Wistar rat plasma at 1 mg/kg, iv by LC-MS/MS analysis
- Format: ADME, organism-based
- stated_conditions: read-out: PPB (converted)
parameter_measured: fraction unbound
Please reply with the number alone, leaving off any unit.

Data point: O=C(O)CCn1c(=O)oc2cc(OC3CC3)c(Cl)cc21 ; fraction unbound = 0.097

// field: fraction unbound; key: O=C(O)CCn1c(=O)oc2cc(OCC3CC3)c(Cl)cc21 ; value = 0.098

Lookup result for C[C@@H](Oc1cc2onc(CCC(=O)O)c2cc1Cl)c1ccc(Cl)cn1 ; measured fraction unbound: 0.003

get_value(item= O=C(O)CCn1c(=O)oc2cc(Cl)c(Cl)cc21 , readout=fraction unbound) returns 0.083

Input C[C@@H](Oc1cc2oc(=O)n(CCC(=O)O)c2cc1Cl)c1ccccn1 . Output fraction unbound: 0.215

Sample Cc1ccc([C@@H](C)Oc2cc3onc(CCC(=O)O)c3cc2Cl)nc1 ; fraction unbound observed: 0.009

Data point: C[C@@H](Oc1cc2onc(CCC(=O)O)c2cc1Cl)c1ccccn1 ; fraction unbound = 0.022

Data point: CCOc1cc2oc(=O)n(CCC(=O)O)c2cc1Cl ; fraction unbound = 0.184

The measured fraction unbound associated with Cc1ccc([C@@H](C)Oc2cc3onc(CCC(=O)O)c3cc2Cl)nn1 reads 0.067

Reported fraction unbound ( Cc1cc2oc(=O)n(CCC(=O)O)c2cc1Cl ) = 0.045

* * *

- test_description: Lipophilicity, log D of the compound at pH 7.4 by RP-HPLC analysis
- Type: physicochemical
- stated_conditions: buffer
parameter_measured: logD
Field format: numeric only.

The compound listed as C[C@@H](Oc1cc2oc(=O)n(CCC(=O)O)c2cc1Cl)c1ncco1.NC(CO)(CO)CO shows logD equal to 1.11

Value of measured logD for the entry NC(CO)(CO)CO.O=C(O)CCn1c(=O)oc2cc(OCc3ccccn3)c(Cl)cc21 : 1.32

Note to self: logD recorded for NC(CO)(CO)CO.O=C(O)CCn1c(=O)oc2cc(OCCN3CCCC3)c(Cl)cc21 was -0.26

Record Cc1cccc([C@@H](C)Oc2cc3oc(=O)n(CCC(=O)O)c3cc2Cl)n1.NC(CO)(CO)CO , field logD: 2.12

compound C[C@@H](Oc1cc2oc(=O)n(CCC(=O)O)c2cc1Cl)c1ccccn1.NC(CO)(CO)CO , logD observed: 1.71

Please fill in: logD reported for CCOc1cc2oc(=O)n(CCC(=O)O)c2cc1Cl.NC(CO)(CO)CO = 1.49

Consider Cc1ccc([C@@H](C)Oc2cc3onc(CCC(=O)O)c3cc2Cl)nn1 . Its measured logD is 2.97

Record CC(C)Cc1cc2oc(=O)n(CCC(=O)O)c2cc1Cl.NC(CO)(CO)CO , field logD: 3.03

Summary for this compound, NC(CO)(CO)CO.O=C(O)CCn1c(=O)oc2cc(OCC3CC3)c(Cl)cc21 : logD is 2.09
